pKi: −log10 of the molar value. Structures can show the parent of a compound that is named as a salt.
pKi values recorded for Histamine H4 receptor (Homo sapiens, UniProt Q9H3N8)

molecule | pKi
N=C(N)SCCCc1c[nH]cn1 | 7.90
NC(=NCCc1ccc(I)cc1)SCCCc1cnc[nH]1 [IODOPHENPROPIT HYDROBROMIDE] | 7.80
N=C(NCc1ccc(Cl)c(Cl)c1)SCCCc1c[nH]cn1 | 8.80
N=C(NCc1ccc(Br)cc1)SCCCc1c[nH]cn1 | 8.00
N=C(NCc1cccc(Cl)c1)SCCCc1c[nH]cn1 | 7.80
COc1ccc(CCNC(=N)SCCCc2c[nH]cn2)cc1 | 6.80
NC(=NCCCCc1ccccc1)SCCCc1cnc[nH]1 | 7.20
N=C(NCc1ccc(F)cc1)SCCCc1c[nH]cn1 | 7.60
N=C(NCCc1ccccc1)SCCCc1c[nH]cn1 | 7.20
Cc1ccc(CNC(=N)SCCCc2c[nH]cn2)cc1 | 7.60
Cc1ccc(CCNC(=N)SCCCc2c[nH]cn2)cc1 | 7.00
N=C(NCCCc1ccccc1)SCCCc1c[nH]cn1 | 7.30
NC(=NCc1ccc(Cl)cc1)SCCCc1cnc[nH]1 | 8.00
N=C(NCc1ccccc1)SCCCc1c[nH]cn1 | 7.60
COc1ccc(CNC(=N)SCCCc2c[nH]cn2)cc1 | 7.90
N=C(NCc1ccccc1Cl)SCCCc1c[nH]cn1 | 8.00
NC(=NCCCc1cnc[nH]1)NCc1ccccc1 | 7.60
NC(=NCCc1ccc(Br)cc1)SCCCc1cnc[nH]1 | 7.40
N=C(NCCc1ccc(Cl)cc1)SCCCc1c[nH]cn1 | 7.50
N=C(NCc1ccc(I)cc1)SCCCc1c[nH]cn1 | 8.00

* * *

# measurement_target: Histamine H3 receptor (Homo sapiens)
# Sequence (Q9Y5N1 whole entry): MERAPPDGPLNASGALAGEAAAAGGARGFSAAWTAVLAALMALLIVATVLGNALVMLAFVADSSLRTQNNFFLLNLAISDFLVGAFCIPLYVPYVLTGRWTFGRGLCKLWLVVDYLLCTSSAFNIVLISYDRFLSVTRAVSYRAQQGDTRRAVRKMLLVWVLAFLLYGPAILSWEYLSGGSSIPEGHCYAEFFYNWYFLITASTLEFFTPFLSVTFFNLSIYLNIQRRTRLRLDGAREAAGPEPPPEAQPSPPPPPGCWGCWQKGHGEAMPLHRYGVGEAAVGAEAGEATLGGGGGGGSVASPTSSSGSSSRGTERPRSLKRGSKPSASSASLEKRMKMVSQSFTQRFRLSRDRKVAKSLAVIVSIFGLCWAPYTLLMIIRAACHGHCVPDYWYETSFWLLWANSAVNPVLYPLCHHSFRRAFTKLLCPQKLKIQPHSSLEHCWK

structure_smiles_string | Ki [nM]
N=C(NCc1cccc(Cl)c1)SCCCc1c[nH]cn1 | 7.94
N=C(NCc1ccccc1Cl)SCCCc1c[nH]cn1 | 7.94
NC(=NCCc1ccc(Br)cc1)SCCCc1cnc[nH]1 | 7.94
N=C(NCCCc1ccccc1)SCCCc1c[nH]cn1 | 10
N=C(NCCc1ccccc1)SCCCc1c[nH]cn1 | 20
